target: Nuclear receptor subfamily 1 group I member 3 (Homo sapiens); test: qHTS for Constitutive Androstane Receptor (CAR) Antagonist screened against the NCATS CANVASS Library (AID 1347372); conditions: HepG2-hCAR-CYP2B6 luciferase, CITCO-stimulated antagonist mode; series mostly up to 46.1 µM
Inconclusive results are not listed. The source made the active and inactive calls. Calls follow the shape of the dose curve; as a rule, active = well fitted inhibition curve with a large enough effect; inconclusive = small, poorly fitted or top-dose-only effect; inactive = no such curve, though single readings can be large or run the other way. Peptide text beside a SMILES is read from it. * marks the point of attachment. Hexanoyl = CCCCCC(=O)*
Allowed answers: active, inactive

Below are worked cases with known answers.
C=C1C[C@]23C=CC(=O)[C@@](C)(CCCC(C)C(=O)N[C@@H](CO)C(=O)O)[C@@H]2C[C@@H]1CC3 (some centres undefined)
inactive
COC(=O)[C@@]1(C)CCC[C@]2(C)c3cc(OC)ccc3CC[C@@H]12
inactive
COC(=O)[C@]1([C@H]2CCC(=O)O2)CC(=O)c2c(O)cc(C)cc2O1
inactive
O=C(OC[C@H]1O[C@@H](OC(=O)c2cc(O)c(O)c(O)c2)[C@H](OC(=O)c2cc(O)c(O)c(O)c2)[C@@H](OC(=O)c2cc(O)c(O)c(O)c2)[C@@H]1OC(=O)c1cc(O)c(O)c(O)c1)c1cc(O)c(O)c(O)c1
inactive
C=C1CC[C@@H](Br)C(C)(C)[C@]12CC=C(C)C(=O)C2
inactive

q: Could you kindly confirm the outcome this assay logged for CC1=C[C@H]2[C@H]3C(=O)C(c4ccc(O)cc4)=C[C@@]3(c3ccc(O)cc3)[C@@H]1C(=O)[C@]2(C)O ?
a: active

q: Assay outcome for C/C1=C/[C@@H](C)[C@H](O)[C@@H](O)/C=C/CC/C=C/C(=O)O[C@@H]1[C@H](C)C(=O)CCCC1CC(=O)NC(=O)C1 : what was it?
a: inactive

q: Returns: the outcome recorded for C/C=C/[C@H]1[C@H]2C(=O)c3c(O)c(C)c(O)c(C)c3[C@]1(C(=O)O)C(=O)C=C2C in this assay.
a: inactive

q: Just curious, what result did C/C(=C\CC[C@@H](C)[C@H]1CC[C@]2(C)C3=CCC4C(C)(C)[C@@H](O)C[C@@H](O)[C@]4(C)C3[C@H](O)C[C@@]12C)CO (some centres undefined) get here?
a: inactive

q: Test call, this compound: CC(C)=CCC[C@]1(C)[C@H]2CC(=O)[C@@]3(CO3)[C@@H]1C2
a: inactive

q: So what was the verdict on CCCCCC(=O)N[C@@H](CC(C)C)C(=O)N[C@H](C=O)CCC(=O)O (Hexanoyl-Leu-Glu-aldehyde) in this test?
a: inactive
